Every entry's value here was drawn from patent US12398121B2.

- testedOn: Human recombinant PARP2 (Homo sapiens, UniProt Q9UGN5)
- Sequence (Q9UGN5 whole entry): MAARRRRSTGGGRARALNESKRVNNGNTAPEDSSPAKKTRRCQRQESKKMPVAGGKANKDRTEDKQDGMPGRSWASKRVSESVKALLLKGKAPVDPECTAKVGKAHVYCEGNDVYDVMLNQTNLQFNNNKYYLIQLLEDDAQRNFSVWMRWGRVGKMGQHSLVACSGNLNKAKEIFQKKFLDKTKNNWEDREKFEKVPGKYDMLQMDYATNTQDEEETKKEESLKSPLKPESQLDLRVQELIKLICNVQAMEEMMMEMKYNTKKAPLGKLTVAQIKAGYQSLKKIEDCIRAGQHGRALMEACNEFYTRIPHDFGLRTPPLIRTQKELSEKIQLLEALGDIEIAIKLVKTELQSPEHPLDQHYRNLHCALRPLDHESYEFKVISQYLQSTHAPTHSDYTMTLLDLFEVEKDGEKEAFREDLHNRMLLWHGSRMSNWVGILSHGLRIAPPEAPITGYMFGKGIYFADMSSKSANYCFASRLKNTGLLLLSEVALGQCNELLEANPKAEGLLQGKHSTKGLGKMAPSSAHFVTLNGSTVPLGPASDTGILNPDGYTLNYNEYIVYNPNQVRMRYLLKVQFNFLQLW
- measurementDescription: RBC HotSpot PARP2 radioisotope-based filter binding assay
- Assay type: biochemical
- reportedConditions: 2.5 nM enzyme, histone H3, 10 μM 32P-NAD+; read-out: PARP2 IC50
recordedMetric: IC50

| molecule | testedOn | observedResult |
| --- | --- | --- |
| C[C@]12CCC(F)(F)C[C@@H]1CC[C@@H]1[C@@H]2CC[C@]2(C)[C@@H](OCCCCCC(=O)N3CCN(C(=O)c4cc(Cc5n[nH]c(=O)c6ccccc56)ccc4F)CC3)CC[C@@H]12 | Human recombinant PARP2 (Homo sapiens, UniProt Q9UGN5) | 1.9 nM |
| C[C@]12CCC(O)C[C@@H]1CC[C@@H]1[C@@H]2CC[C@]2(C)[C@@H](OCCCCCC(=O)N3CCN(C(=O)c4cc(Cc5n[nH]c(=O)c6ccccc56)ccc4F)CC3)CC[C@@H]12 (stereo partly drawn) | Human recombinant PARP2 (Homo sapiens, UniProt Q9UGN5) | 0.2 nM |
| C[C@]12CCC(=O)C[C@@H]1CC[C@@H]1[C@@H]2CC[C@]2(C)[C@@H](OCC(=O)N3CCN(C(=O)c4cc(Cc5n[nH]c(=O)c6ccccc56)ccc4F)CC3)CC[C@@H]12 | Human recombinant PARP2 (Homo sapiens, UniProt Q9UGN5) | 0.2 nM |

* * *

- testedOn: Human recombinant PARP2 (Homo sapiens, UniProt Q9UGN5)
- measurementDescription: RBC HotSpot PARP2 radioisotope-based filter binding assay
- Assay type: biochemical
- reportedConditions: 2.5 nM enzyme, histone H3, 10 μM 32P-NAD+; read-out: PARP2 IC50

| smilesString | uom | IC50 |
| --- | --- | --- |
| C[C@]12CCC(=O)C[C@@H]1CC[C@@H]1[C@@H]2CC[C@]2(C)[C@@H](OCCOCC(=O)N3CCN(C(=O)c4cc(Cc5n[nH]c(=O)c6ccccc56)ccc4F)CC3)CC[C@@H]12 | nM | 0.3 |
| CCC(=C(c1ccc(O)cc1)c1ccc(OCCN2CCN(C(=O)c3cc(Cc4n[nH]c(=O)c5ccccc45)ccc3F)CC2)cc1)c1ccccc1 | nM | 12.4 |
| O=C(c1ccc(OCCN2CCN(C(=O)c3cc(Cc4n[nH]c(=O)c5ccccc45)ccc3F)CC2)cc1)c1c(-c2ccc(O)cc2)sc2cc(O)ccc12 | nM | 0.5 |

* * *

Item-by-item account of pIC50
- testedOn: Human recombinant PARP1 (Homo sapiens, UniProt P09874)
- Sequence (P09874 whole entry): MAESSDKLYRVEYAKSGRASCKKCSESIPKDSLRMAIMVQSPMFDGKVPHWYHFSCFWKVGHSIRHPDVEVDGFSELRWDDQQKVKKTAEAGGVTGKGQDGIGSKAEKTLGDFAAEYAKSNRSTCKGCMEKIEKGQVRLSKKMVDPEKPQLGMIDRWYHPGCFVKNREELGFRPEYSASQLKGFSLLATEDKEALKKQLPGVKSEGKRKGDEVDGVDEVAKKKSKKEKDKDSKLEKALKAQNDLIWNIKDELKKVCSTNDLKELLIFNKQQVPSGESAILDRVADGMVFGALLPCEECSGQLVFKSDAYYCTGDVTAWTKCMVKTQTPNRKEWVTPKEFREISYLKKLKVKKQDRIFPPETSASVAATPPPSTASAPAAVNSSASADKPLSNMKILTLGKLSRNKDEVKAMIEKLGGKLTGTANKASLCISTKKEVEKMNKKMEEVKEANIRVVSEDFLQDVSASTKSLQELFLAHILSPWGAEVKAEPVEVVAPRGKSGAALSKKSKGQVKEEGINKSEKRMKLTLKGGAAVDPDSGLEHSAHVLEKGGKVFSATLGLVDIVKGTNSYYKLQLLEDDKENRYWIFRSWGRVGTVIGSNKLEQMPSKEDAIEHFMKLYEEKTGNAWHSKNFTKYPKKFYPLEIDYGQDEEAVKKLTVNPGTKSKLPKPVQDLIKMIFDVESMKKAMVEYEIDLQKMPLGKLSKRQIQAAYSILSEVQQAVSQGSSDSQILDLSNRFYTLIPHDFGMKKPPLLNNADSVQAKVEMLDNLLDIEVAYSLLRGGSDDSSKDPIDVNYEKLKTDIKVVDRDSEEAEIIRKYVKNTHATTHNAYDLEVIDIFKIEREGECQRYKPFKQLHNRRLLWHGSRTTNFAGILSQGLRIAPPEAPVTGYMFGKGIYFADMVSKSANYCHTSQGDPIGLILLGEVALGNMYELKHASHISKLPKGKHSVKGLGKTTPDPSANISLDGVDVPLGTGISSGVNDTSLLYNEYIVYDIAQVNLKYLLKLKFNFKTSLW
- measurementDescription: RBC HotSpot PARP1 radioisotope-based filter binding assay
- Format: biochemical
- reportedConditions: 2.5 nM enzyme, histone H4, 10 μM 32P-NAD+; read-out: PARP1 IC50
pIC50: −log10 of the molar value.

| molecule | testedOn | pIC50 |
| --- | --- | --- |
| C[C@]12CCC(=O)C[C@@H]1CC[C@@H]1[C@@H]2CC[C@]2(C)[C@@H](OCC(=O)N3CCN(C(=O)c4cc(Cc5n[nH]c(=O)c6ccccc56)ccc4F)CC3)CC[C@@H]12 | Human recombinant PARP1 (Homo sapiens, UniProt P09874) | 9.15 |
| Cn1ncnc1[C@H]1c2n[nH]c(=O)c3cc(F)cc(c23)N[C@@H]1c1ccc(NC(=O)CCCCCO[C@H]2CC[C@H]3[C@@H]4CC[C@H]5CC(=O)CC[C@]5(C)[C@H]4CC[C@]23C)cc1 | Human recombinant PARP1 (Homo sapiens, UniProt P09874) | 8.70 |
| Cn1ncnc1[C@H]1c2n[nH]c(=O)c3cc(F)cc(c23)N[C@@H]1c1ccc(NC(=O)CCCCCNC(=O)c2ccc(N3C(=S)N(c4ccc(C#N)c(C(F)(F)F)c4)C(=O)C3(C)C)cc2F)cc1 | Human recombinant PARP1 (Homo sapiens, UniProt P09874) | 8.70 |
| C[C@]12CCC(O)C[C@@H]1CC[C@@H]1[C@@H]2CC[C@]2(C)[C@@H](OCCCCCC(=O)N3CCN(C(=O)c4cc(Cc5n[nH]c(=O)c6ccccc56)ccc4F)CC3)CC[C@@H]12 (some centres unmarked) | Human recombinant PARP1 (Homo sapiens, UniProt P09874) | 8.80 |
| C[C@](O)(CS(=O)(=O)c1ccc(OCCCCCCN2CCN(C(=O)c3cc(Cc4n[nH]c(=O)c5ccccc45)ccc3F)CC2)cc1)C(=O)Nc1ccc(C#N)c(C(F)(F)F)c1 | Human recombinant PARP1 (Homo sapiens, UniProt P09874) | 8.22 |

* * *

- testedOn: Human recombinant PARP2 (Homo sapiens, UniProt Q9UGN5)
- measurementDescription: RBC HotSpot PARP2 radioisotope-based filter binding assay
- Format: biochemical
Item-by-item account of IC50
recordedMetric: IC50 (nM)

| smilesString | observedResult |
| --- | --- |
| CC1(C)C(=O)N(c2ccc(C#N)c(C(F)(F)F)c2)C(=S)N1c1ccc(C(=O)NCCCCCC(=O)N2CCN(C(=O)c3cc(Cc4n[nH]c(=O)c5ccccc45)ccc3F)CC2)c(F)c1 | 0.2 |
| CC1(C)C(=O)N(c2ccc(C#N)c(C(F)(F)F)c2)C(=S)N1c1ccc(C(=O)NCCCCCCNCc2ccc(-c3[nH]c4cc(F)cc5c4c3CCNC5=O)cc2)c(F)c1 | 2 |
| C[C@](O)(CS(=O)(=O)c1ccc(NCCN2CCN(C(=O)c3cc(Cc4n[nH]c(=O)c5ccccc45)ccc3F)CC2)cc1)C(=O)Nc1ccc(C#N)c(C(F)(F)F)c1 | 0.2 |

* * *

Item-by-item account of pIC50
- testedOn: Human recombinant PARP2 (Homo sapiens, UniProt Q9UGN5)
- measurementDescription: RBC HotSpot PARP2 radioisotope-based filter binding assay
- Assay type: biochemical
- reportedConditions: 2.5 nM enzyme, histone H3, 10 μM 32P-NAD+; read-out: PARP2 IC50
pIC50: −log10 of the molar value.
recordedMetric: pIC50

| smilesString | observedResult |
| --- | --- |
| C[C@](O)(CS(=O)(=O)c1ccc(OCCCCCCN2CCN(C(=O)c3cc(Cc4n[nH]c(=O)c5ccccc45)ccc3F)CC2)cc1)C(=O)Nc1ccc(C#N)c(C(F)(F)F)c1 | 9.30 |
| CN(CCCCCC(=O)N1CCN(C(=O)c2cc(Cc3n[nH]c(=O)c4ccccc34)ccc2F)CC1)CCOc1ccc(C(=O)c2c(-c3ccc(O)cc3)sc3cc(O)ccc23)cc1 | 9.52 |
| Cn1ncnc1[C@H]1c2n[nH]c(=O)c3cc(F)cc(c23)N[C@@H]1c1ccc(NC(=O)CCCCCNC(=O)c2ccc(N3C(=S)N(c4ccc(C#N)c(C(F)(F)F)c4)C(=O)C3(C)C)cc2F)cc1 | 9.30 |
| C[C@]12CCC(=O)C[C@@H]1CC[C@@H]1[C@@H]2CC[C@@]2(C)[C@H]1CC[C@@]2(O)CCCN1CCN(C(=O)c2cc(Cc3n[nH]c(=O)c4ccccc34)ccc2F)CC1 | 9.52 |
| Cn1ncnc1[C@@H]1c2n[nH]c(=O)c3cc(F)cc(c23)N[C@H]1c1ccc(NC(=O)CCCCCNC(=O)c2ccc(N3C(=S)N(c4ccc(C#N)c(C(F)(F)F)c4)C(=O)C3(C)C)cc2F)cc1 | 7.80 |
| C[C@]12CCC(=O)C[C@@H]1CC[C@@H]1[C@@H]2CC[C@@]2(C)[C@H]1CC[C@@]2(O)C#CC(=O)N1CCN(C(=O)c2cc(Cc3n[nH]c(=O)c4ccccc34)ccc2F)CC1 | 9.70 |
| C[C@]12CCC(=O)C[C@@H]1CC[C@@H]1[C@@H]2CC[C@@]2(C)[C@H]1CC[C@@]2(O)c1cn(CC(=O)N2CCN(C(=O)c3cc(Cc4n[nH]c(=O)c5ccccc45)ccc3F)CC2)nn1 | 10.00 |
| C[C@](O)(COc1ccc(NCCCCCC(=O)N2CCN(C(=O)c3cc(Cc4n[nH]c(=O)c5ccccc45)ccc3F)CC2)cc1)C(=O)Nc1ccc(C#N)c(C(F)(F)F)c1 | 9.52 |
